Assay: in vitro
Assay type: in vitro ADME
Settings: both sexes, human, hepatocytes, Half-life in PHH
MEASUREMENT LABEL: half-life at 20 µM

INSERT INTO results (compound, measurement_label, value) VALUES
  ('O=C(O)c1ccccc1O [SA, salicylic acid]', 'half-life at 20 µM', '> 15.8 h');

---

Test: in vitro
Assay type: in vitro ADME
Details: both sexes, human, hepatocytes, 20 µM, 0.8 million cells/ml; read-out: Half-life in PHH
MEASUREMENT LABEL: half-life at 20 µM

INSERT INTO measurements (molecule, measurement_label, value) VALUES
  ('O=C(OCc1ccccc1)c1ccccc1O [BSal, benzyl salicylate]', 'half-life at 20 µM', '9.2 min');

The origin of these recorded values is paper PMC10955127.
